Recorded values, source patent US6737383B1.

Exercise: for every item that follows, state its recorded Bedstraw plant response rating.
System: bedstraw
Experiment: Test B pre/postemergence bedstraw
Format: in vivo, Galium aparine
Conditions: Preemergence, Rate 250 g/ha; scale 0 to 10, 0 is no effect, 10 is complete control
Answers are plain numbers.

# Compound, Observable, Measurement
rows = [
    ("CC(C)N(C(=O)n1oc(=O)n(-c2ccc(OC(F)(F)F)cc2)c1=O)c1ccc(F)cc1", "Bedstraw plant response rating", 6),
    ("CC(C)N(Cc1ccccc1)C(=O)n1oc(=O)n(C(C)C)c1=O", "Bedstraw plant response rating", 3),
    ("CCN(CC)C(=O)n1oc(=O)n(Cc2ccccc2)c1=O", "Bedstraw plant response rating", 0),
]

Give the measured Bedstraw plant response rating for CC(C)N(C(=O)n1oc(=O)n(C(C)C(=O)N(C)C)c1=O)c1ccc(F)cc1 (stereo not shown)
8

----------
System: wheat
Experiment: Test B pre/postemergence wheat
Format: in vivo, Triticum aestivum
Conditions: Preemergence, Rate 250 g/ha; scale 0 to 10, 0 is no effect, 10 is complete control
Observable: Wheat plant response rating
Answers are plain numbers.

# Compound, Wheat plant response rating
rows = [
    ("CC(C)N(C(=O)n1oc(=O)n(C(C)C(=O)N(C)C)c1=O)c1ccc(F)cc1 (stereo not drawn)", 1),
]

Batch: Wheat plant response rating for all items listed.
1. CCOC(=O)C=C(Cn1c(=O)on(C(=O)N(c2ccc(F)cc2)C(C)C)c1=O)OCC
2. Cc1ccccc1-n1c(=O)on(C(=O)N(c2ccc(F)cc2)C2CCC2)c1=O
3. CC(C)N(C(=O)n1oc(=O)n(N(C)C)c1=O)c1ccc(F)cc1
4. CC(C)N(C(=O)n1oc(=O)n(C)c1=O)c1ccc(F)cc1
5. CC(C)N(Cc1ccccc1)C(=O)n1oc(=O)n(C(C)C)c1=O

1: 0; 2: 0; 3: 8; 4: 6; 5: 0

Batch: Wheat plant response rating for all items listed.
1. CC(=O)C(C)n1c(=O)on(C(=O)N(c2ccc(F)cc2)C(C)C)c1=O (stereo not drawn)
2. CC(C)N(C(=O)n1oc(=O)n([C@@H](C)c2ccccc2)c1=O)c1ccc(Cl)cc1
3. CC(C)N(C(=O)n1oc(=O)n(Cc2ccco2)c1=O)c1ccc(Cl)cc1

[0, 0, 0]

----------
Test system: corn
Assay: Test B pre/postemergence corn
Format: in vivo, Zea mays
Details: Preemergence, Rate 500 g/ha; scale 0 (no effect) to 10 (complete control)
Observable: Corn plant response rating
Numbers only.

Known Corn plant response rating results, listed for orientation:
# Compound, Corn plant response rating
measured = [
    ("CC(C)N(C(=O)n1oc(=O)n(-c2ccccc2)c1=O)c1ccc(F)cc1 [Compound 38]", 0),
    ("CC(C)N(C(=O)n1oc(=O)n(-c2ccccc2C(F)(F)F)c1=O)c1ccc(F)cc1 [Compound 15]", 0),
    ("Cc1cccc(C(C)C)c1-n1c(=O)on(C(=O)N(c2ccc(Cl)cc2)C(C)C)c1=O [Compound 64]", 0),
    ("CCN(CC)C(=O)n1oc(=O)n(-c2cc(Cl)cc(Cl)c2)c1=O [Compound 11]", 0),
    ("CC(C)N(C(=O)n1oc(=O)n(Cc2ccccc2)c1=O)c1ccc(F)cc1 [Compound 78]", 0),
]

Next up:
Give the measured Corn plant response rating for CCCn1c(=O)on(C(=O)N(c2ccccc2)C(C)C)c1=O [Compound 92]
9
